Readings of Ki for the listed compounds
Target: CDK6/Cyclin D1 (Homo sapiens (Human), UniProt Q00534)
Sequence (Q00534 whole entry): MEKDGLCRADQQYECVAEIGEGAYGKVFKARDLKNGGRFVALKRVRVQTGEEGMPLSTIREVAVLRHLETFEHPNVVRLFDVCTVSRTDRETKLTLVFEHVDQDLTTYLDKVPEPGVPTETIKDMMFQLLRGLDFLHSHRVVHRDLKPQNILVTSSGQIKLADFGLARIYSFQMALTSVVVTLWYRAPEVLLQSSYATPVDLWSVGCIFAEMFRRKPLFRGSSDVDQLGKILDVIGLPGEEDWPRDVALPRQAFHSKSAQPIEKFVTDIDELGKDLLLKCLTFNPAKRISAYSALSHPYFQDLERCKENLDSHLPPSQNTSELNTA
Sequence (P24385 whole entry partner): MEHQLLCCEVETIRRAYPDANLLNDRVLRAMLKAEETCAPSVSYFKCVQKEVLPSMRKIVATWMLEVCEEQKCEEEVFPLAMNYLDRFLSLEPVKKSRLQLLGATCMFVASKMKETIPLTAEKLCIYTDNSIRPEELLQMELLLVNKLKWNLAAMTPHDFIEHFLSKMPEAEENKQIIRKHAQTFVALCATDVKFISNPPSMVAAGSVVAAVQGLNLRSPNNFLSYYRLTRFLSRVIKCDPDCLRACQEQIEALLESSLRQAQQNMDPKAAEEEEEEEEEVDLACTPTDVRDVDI
Experiment: biochemical
Conditions: CDK6_Ki (nM), non-phosphorylated CDK6/Cyclin D1, 2 mM ATP, Morrison fit
Your answer should be a plain number; it is taken to be in nM.

Response field Ki (CDK6/Cyclin D1 (Homo sapiens (Human), UniProt Q00534)) for item C[C@@H]1CCC[C@@H]1n1c(=O)c(CO)cc2cnc(NC3CCN(S(C)(=O)=O)CC3)nc21 : 0.13

CDK6/Cyclin D1 (Homo sapiens (Human), UniProt Q00534) data for CS(=O)(=O)N1CCC(Nc2ncc3ccc(=O)n([C@H]4CC[C@@H](O)CC4)c3n2)CC1 ; its Ki: 2.84

The compound CNS(=O)(=O)N1CCC(Nc2ncc3ccc(=O)n(C4CCCC4)c3n2)CC1 on CDK6/Cyclin D1 (Homo sapiens (Human), UniProt Q00534): Ki was 2.99

The reported CDK6/Cyclin D1 (Homo sapiens (Human), UniProt Q00534) Ki of Cc1cc2cnc(NC3CCN(S(=O)(=O)C4CCS(=O)(=O)C4)CC3)nc2n([C@H]2CCC[C@]2(C)O)c1=O (single isomer, unassigned; isomer b) [Example 107] is 184

Data credit: patent US10233188B2
